- testTarget: recombinant human NF-kappaB-inducing kinase (NIK/MAP3K14) (Homo sapiens)
- assayOverview: Biological Assay B: inhibition of auto-phosphorylation of recombinant human NIK/MAP3K14 (AlphaScreen), performed at 2 locations
- Assay type: biochemical
- setupConditions: location 1; AlphaScreen auto-phosphorylation; averaged values; read-out: Assay B location 1 IC50
measurementLabel: IC50 (nM)

Below, each entry is followed by its recorded IC50 result.
**Q:** Suppose we examine the molecule COc1cc(C2CCN(C)CC2)c(Cl)cc1Nc1nccc(-c2cnc3c(c2)C(C)(CO)CN3)n1 (stereo not shown) ; what IC50 value has been reported?
**A:** 1.6

**Q:** Next up: Cc1cc(N2CCOCC2)c(Cl)cc1Nc1nccc(-c2cnc3c(c2)C(C)(CO)CN3)n1 (stereo not shown) [Compound 361]
**A:** 7.8

**Q:** Proceed to COc1cc(C(=O)NC2CCOCC2)ccc1Nc1ncc(F)c(-c2cnc3c(c2)C(C)(CO)CN3)n1 (stereo not shown)
**A:** 5.5

**Q:** Now try Cc1cc(N2CCOCC2)c(C#N)cc1Nc1nccc(-c2cnc3c(c2)C(C)(CO)CN3)n1 (stereo not shown) [Compound 363] .
**A:** 17.8

**Q:** Here is the next molecule: CCN1CCN(c2cc(OC)c(Nc3nccc(-c4cnc5c(c4)C(C)(CO)CN5)n3)cc2C)CC1 (stereo not shown)
**A:** 4.9

I. CN(C)CCOc1cc(N2CCOCC2)c(F)cc1Nc1nccc(-c2cnc3c(c2)C(C)(CO)CN3)n1 (single isomer, unassigned) [Compound 297]
II. CCN1CCN(c2cc(OC)c(Nc3nccc(-c4cnc5c(c4)C(C)(CO)CN5)n3)cc2Cl)CC1 (single isomer, unassigned) [Compound 293]
**Q:** From the items above, decide which of I and II has the lower IC50 reading. Could you answer with the label of the item you picked?
**A:** II

----------
- testTarget: recombinant human NF-kappaB-inducing kinase (NIK/MAP3K14) (Homo sapiens)
- assayOverview: Biological Assay A: inhibition of recombinant human NF-kappaB-inducing kinase (NIK/MAP3K14) activity (MBP phosphorylation, Mesoscale)
- setupConditions: MSD MBP; averaged over all measurements on all batches; read-out: Assay A Biochemical (MSD MBP) IC50
pIC50: −log10 of the molar value.
measurementLabel: pIC50

1. COC1CCN(C(=O)c2ccc(Nc3nccc(-c4cnc5c(c4)C(C)(C)CN5)n3)c(OC(F)F)c2)CC1
2. COc1cc(CNC(C)=O)c(C)c(Nc2nccc(-c3cnc4c(c3)C(C)(C)CN4)n2)c1
**Q:** Quick check, higher pIC50 between 1 and 2 ? Respond using the label that marks the chosen record.
**A:** 2

P. Cc1c(CNC(=O)C(C)C)cccc1Nc1nccc(-c2cnc3c(c2)C(C)(C)CN3)n1
Q. Cc1cc(C(=O)N2CCS(=O)(=O)CC2)ccc1Nc1nccc(-c2cnc3c(c2)C(C)(CO)CN3)n1 (stereo not shown)
R. Cc1cc(C(=O)N2CCC(O)CC2)ccc1Nc1nccc(-c2cnc3c(c2)C(C)(C)CN3)n1
**Q:** Rank entries according to their pIC50, from the largest number down. Sort the labels as requested; that list is your answer.
**A:** Q, R, P
(Q: 8.41, R: 8.05, P: 7.62)

a. CC(=O)NCc1cccc(Nc2nccc(-c3cnc4c(c3)C(C)(CO)CN4)n2)c1C (stereo not shown)
b. COc1ccc(S(C)(=O)=O)cc1Nc1nccc(-c2cnc3c(c2)C(C)(C)CN3)n1
**Q:** Smaller pIC50 value? Options are a and b // return label of chosen record
**A:** b

----------
- testTarget: recombinant human NF-kappaB-inducing kinase (NIK/MAP3K14) (Homo sapiens)
- assayOverview: Biological Assay B: inhibition of auto-phosphorylation of recombinant human NIK/MAP3K14 (AlphaScreen), performed at 2 locations
- Format: biochemical
- setupConditions: location 1; AlphaScreen auto-phosphorylation; averaged values; read-out: Assay B location 1 IC50
- Protocol: Inhibition of Auto-Phosphorylation of Recombinant Human NF-kappaB-Inducing Kinase (NIK/MAP3K14) Activity (AlphaScreen®) NIK/MAP3K14 auto-phosphorylation activity was measured using the AlphaScreen® (αscreen) format (Perkin Elmer). All compounds tested were dissolved in dimethyl sulfoxide (DMSO) and further dilutions were made in assay buffer. […] Protein A Acceptor and Glutathione-Donor beads were added before reading using an EnVision® Multilabel Plate Reader (Perkin Elmer). […]
measurementLabel: IC50 (nM)

Some entries whose results are on file:
**Q:** Which IC50 value is on record for COCCOc1cc(N2CCOCC2)c(C#N)cc1Nc1nccc(-c2cnc3c(c2)C(C)(CO)CN3)n1 (stereo not shown) ?
**A:** 123

**Q:** Param item: COc1cc(N2CCC(N(C)C)C2)c(Cl)cc1Nc1nccc(-c2cnc3c(c2)C(C)(CO)CN3)n1 (stereo not shown)
**A:** 4.7

**Q:** Ok, now COc1cc(N2CCN(C)CC2)c(Cl)cc1Nc1nccc(-c2cnc3c(c2)C(C)(CO)CN3)n1 (stereo not shown) [Compound 267]
**A:** 4.7

**Q:** Same thing, different molecule: COCCOc1cc(N2CCOCC2)c(Cl)cc1Nc1nccc(-c2cnc3c(c2)C(C)(CO)CN3)n1 (stereo not shown)
**A:** 87.1

**Q:** Now this one: COc1cc(OC2CCN(C)CC2)c(F)cc1Nc1nccc(-c2cnc3c(c2)C(C)(CO)CN3)n1 (stereo not shown)
**A:** 5.3

A. COc1cc(N2CC3(CCOCC3)C2)c(Cl)cc1Nc1nccc(-c2cnc3c(c2)C(C)(CO)CN3)n1 (single isomer, unassigned) [Compound 3S]
B. CC1(CO)CNc2ncc(-c3ccnc(Nc4cc(F)c(N5CCOCC5)cc4Cl)n3)cc21 (stereo not shown) [Compound 365]
**Q:** Dear colleague, could you let me know whether A or B has the lower recorded IC50? Thanks. Label of pick, please.
**A:** A

1. Cc1cc(N2CCOCC2)c(C#N)cc1Nc1nccc(-c2cnc3c(c2)C(C)(CO)CN3)n1 (single isomer, unassigned) [Compound 264]
2. COc1cc(N2CC3(CCOCC3)C2)c(C#N)cc1Nc1nccc(-c2cnc3c(c2)C(C)(CO)CN3)n1 (stereo not shown)
3. CCN1CCC(Oc2ccc(Nc3nccc(-c4cnc5c(c4)C(C)(CO)CN5)n3)c(OC)c2)C1 (stereo not shown)
**Q:** Descending sort on IC50 required. List the labels, following the order given in the request.
**A:** 3, 2, 1

I. CC1(CO)CNc2ncc(-c3ccnc(Nc4cc(Cl)c(N5CCOCC5)cc4Cl)n3)cc21 (stereo not shown) [Compound 362]
II. COc1cc(N2CCC2)c(Cl)cc1Nc1nccc(-c2cnc3c(c2)C(C)(CO)CN3)n1 (stereo not shown)
**Q:** Between I and II , whose measured IC50 reads higher? Please indicate the selected item by its label.
**A:** II
(II: 12 nM, I: 6.9 nM)

----------
- testTarget: recombinant human NF-kappaB-inducing kinase (NIK/MAP3K14) (Homo sapiens, UniProt Q99558)
- Sequence (Q99558 whole entry): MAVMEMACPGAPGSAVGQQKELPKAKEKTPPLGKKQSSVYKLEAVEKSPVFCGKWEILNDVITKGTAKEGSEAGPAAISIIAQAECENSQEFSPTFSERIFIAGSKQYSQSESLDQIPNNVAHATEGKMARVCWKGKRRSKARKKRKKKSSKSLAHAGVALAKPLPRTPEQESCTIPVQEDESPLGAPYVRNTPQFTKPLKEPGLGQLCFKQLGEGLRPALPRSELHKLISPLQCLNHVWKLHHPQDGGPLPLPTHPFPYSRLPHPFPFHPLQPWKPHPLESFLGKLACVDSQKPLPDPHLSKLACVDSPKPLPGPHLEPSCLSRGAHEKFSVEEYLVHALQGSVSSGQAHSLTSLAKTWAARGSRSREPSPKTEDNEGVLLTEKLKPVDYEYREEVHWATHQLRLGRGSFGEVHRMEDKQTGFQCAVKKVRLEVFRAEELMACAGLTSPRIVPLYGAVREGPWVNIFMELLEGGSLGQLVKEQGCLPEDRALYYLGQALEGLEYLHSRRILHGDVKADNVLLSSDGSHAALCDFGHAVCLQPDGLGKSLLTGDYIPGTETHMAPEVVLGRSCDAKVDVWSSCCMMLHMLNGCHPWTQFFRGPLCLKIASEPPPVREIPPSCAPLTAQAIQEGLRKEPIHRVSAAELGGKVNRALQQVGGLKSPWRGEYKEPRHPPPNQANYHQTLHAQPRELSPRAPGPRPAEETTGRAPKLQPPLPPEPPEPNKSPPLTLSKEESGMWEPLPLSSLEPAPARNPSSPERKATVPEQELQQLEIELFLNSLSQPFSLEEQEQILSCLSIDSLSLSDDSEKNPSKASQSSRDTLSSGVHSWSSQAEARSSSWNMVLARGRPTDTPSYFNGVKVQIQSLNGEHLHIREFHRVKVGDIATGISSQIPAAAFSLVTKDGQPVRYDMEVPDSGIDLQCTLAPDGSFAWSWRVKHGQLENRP
- assayOverview: Biological Assay B: inhibition of auto-phosphorylation of recombinant human NIK/MAP3K14 (AlphaScreen), performed at 2 locations
- Assay type: biochemical
- setupConditions: location 2; AlphaScreen auto-phosphorylation; averaged values; read-out: Assay B location 2 IC50
- Description: Inhibition of Auto-Phosphorylation of Recombinant Human NF-kappaB-Inducing Kinase (NIK/MAP3K14) Activity (AlphaScreen®) NIK/MAP3K14 auto-phosphorylation activity was measured using the AlphaScreen® (αscreen) format (Perkin Elmer). All compounds tested were dissolved in dimethyl sulfoxide (DMSO) and further dilutions were made in assay buffer. […] Protein A Acceptor and Glutathione-Donor beads were added before reading using an EnVision® Multilabel Plate Reader (Perkin Elmer). […]
pIC50: −log10 of the molar value.
measurementLabel: pIC50

**Q:** Consider the compound COc1cc(N2CCC(O)C2)c(Cl)cc1Nc1nccc(-c2cnc3c(c2)C(C)(CO)CN3)n1 (stereo not shown) [Compound 325] and give its measured pIC50.
**A:** 8.44

a. Cc1cc(C(=O)N2CCC(O)CC2)ccc1Nc1nccc(-c2cnc3c(c2)C(C)(C)CN3)n1 [Compound 54]
b. CCN1CCN(c2cc(OC)c(Nc3nccc(-c4cnc5c(c4)C(C)(C)CN5)n3)cc2Cl)CC1 [Compound 329]
c. COc1cc(-c2ncc[nH]2)ccc1Nc1nccc(-c2cnc3c(c2)C(C)(CO)CN3)n1 (stereo not shown) [Compound 163]
**Q:** # rank_down: sort by pIC50, max first Please, when replying, give the labels in the order that was requested.
**A:** b, a, c

----------
- testTarget: recombinant human NF-kappaB-inducing kinase (NIK/MAP3K14) (Homo sapiens)
- assayOverview: Biological Assay B: inhibition of auto-phosphorylation of recombinant human NIK/MAP3K14 (AlphaScreen), performed at 2 locations
- Format: biochemical
- setupConditions: location 2; NIK auto-phosphorylation, AlphaScreen; averaged values; read-out: Assay B location 2 IC50
measurementLabel: IC50 (nM)

Past entries and their recorded results:
**Q:** Request body: readout IC50, system recombinant human NF-kappaB-inducing kinase (NIK/MAP3K14) (Homo sapiens), query `COc1cc(CO)c(Cl)cc1Nc1nccc(-c2cnc3c(c2)C(C)(C)CN3)n1` . Return the value.
**A:** 5.6

**Q:** Another: `COc1cc(N2CCC(O)CC2)c(Cl)cc1Nc1nccc(-c2cnc3c(c2)C(C)(C)CN3)n1`
**A:** 3.6

**Q:** Now the compound COc1cc(OCCN2CCOCC2)c(Cl)cc1Nc1nccc(-c2cnc3c(c2)C(C)(CO)CN3)n1 (centres unmarked)
**A:** 2.6

I. CCN1CCN(Cc2cc(OC)c(Nc3nccc(-c4cnc5c(c4)C(C)(CO)CN5)n3)cc2Cl)CC1 (centres unmarked)
II. COc1cc(S(C)(=O)=O)c(F)cc1Nc1nccc(-c2cnc3c(c2)C(C)(C)CN3)n1
**Q:** Higher IC50: I or II ? Answer by quoting the chosen item's label.
**A:** II
(II: 4.6 nM, I: 1.6 nM)
